Assign Hepatotoxicity (acute) to each entry below.
# CONDITION LABEL: human, serum
I'd appreciate a reply containing only the number, no unit.

Give me measured Hepatotoxicity (acute), please, for this substance: "POVIDONE-IODINE"
2

Return Hepatotoxicity (acute) for the following substance: "ENOXAPARIN"
0

# return recorded Hepatotoxicity (acute) for entry "LOBAPLATIN"
0

Give me measured Hepatotoxicity (acute), please, for this substance: SODIUM NITROPRUSSIDE
0

Specify measured Hepatotoxicity (acute) for ANTIMONY (III) ION .
1

# return recorded Hepatotoxicity (acute) for input INTERFERON BETA
10

Tell me its Hepatotoxicity (acute) given INTERFERON GAMMA-1A as the entry.
3

Please give the documented Hepatotoxicity (acute) of "SPIRAMYCIN"
4

Read off the recorded Hepatotoxicity (acute) for INTERFERON ALFA-2A
10

Quick one: give measured Hepatotoxicity (acute) for "PALIVIZUMAB"
0

Assign Hepatotoxicity (acute) to the following record: INTERFERON ALFA
2

Give me measured Hepatotoxicity (acute), please, for this substance: INTERFERON ALFA-N1
0

Provide only the value of recorded Hepatotoxicity (acute) for "COLISTIN"
0

Name the recorded Hepatotoxicity (acute) of the item "IVERMECTIN" in your answer.
0

Return Hepatotoxicity (acute) for the following substance: "ALTEPLASE"
1

Provide only the value of recorded Hepatotoxicity (acute) for "ETARACIZUMAB"
0

Read the entry "NARTOGRASTIM" and write its reported Hepatotoxicity (acute).
0

// fetch Hepatotoxicity (acute) given entry "CARBETIMER"
0

Quote Hepatotoxicity (acute) reported for "STREPTOKINASE" please.
9

Assign Hepatotoxicity (acute) to the following record: "CHOLESTYRAMINE"
0

Kindly indicate its recorded Hepatotoxicity (acute). Item: "MUROMONAB-CD3"
1

In one line, give reported Hepatotoxicity (acute) of the entry "ANISTREPLASE" .
1

State its Hepatotoxicity (acute): DALTEPARIN SODIUM
0

Input "INFLIXIMAB" , output reported Hepatotoxicity (acute).
8

Hello, please tell me recorded Hepatotoxicity (acute) for this one: DENILEUKIN DIFTITOX
1

Please report the measured Hepatotoxicity (acute) for GONADOTROPIN, SERUM
1

Return Hepatotoxicity (acute) for the following substance: "BLEOMYCIN"
0

Provide only the value of recorded Hepatotoxicity (acute) for "PEGASPARGASE"
2

Return value of Hepatotoxicity (acute) for input "ADALIMUMAB" , no commentary.
0

Entry CAPROMAB PENDETIDE needs its Hepatotoxicity (acute) filled in; supply it.
0

Identify the reported Hepatotoxicity (acute) for the following entry. MEGLUMINE ANTIMONATE
1

Answer with the recorded Hepatotoxicity (acute) of "GENTAMICIN" only.
0

Using known records, supply Hepatotoxicity (acute) for "CARBOPLATIN"
1

Indicate the recorded Hepatotoxicity (acute) value for this substance: "STIBOGLUCONATE"
2

Tell me its Hepatotoxicity (acute) given "PEGVISOMANT" as the entry.
2

Quickly give me recorded Hepatotoxicity (acute) for "COLESTIPOL"
1

====

Provide the recorded Hepatotoxicity (severe hepatitis) for the entries that follow.
# CONDITION LABEL: human
Write no unit; give the number alone.

State its Hepatotoxicity (severe hepatitis) for this compound: "O=C1Nc2ccccc2C1(c1ccc(O)cc1)c1ccc(O)cc1"
1

Please report Hepatotoxicity (severe hepatitis) for the following compound: "CO/N=C(\C(=O)N[C@@H]1C(=O)N2C(C(=O)O)=C(COC(C)=O)CS[C@H]12)c1csc(N)n1"
0

Give the value of Hepatotoxicity (severe hepatitis) reported for the following: "Cc1c(C(C)C)c(=O)n(-c2ccccc2)n1C"
0

Quote Hepatotoxicity (severe hepatitis) reported for "O=C1Nc2ccc(Cl)cc2[C@@](C#CC2CC2)(C(F)(F)F)O1" please.
4

Specify reported Hepatotoxicity (severe hepatitis) for the compound shown: Cc1cc(=O)n(-c2ccccc2)n1C [ANTIPYRINE]
0

Answer with the recorded Hepatotoxicity (severe hepatitis) for the compound listed here: "CC[C@]1(O)C[C@@H]2CN(CCc3c([nH]c4ccccc34)[C@@](C(=O)OC)(c3cc4c(cc3OC)N(C)[C@H]3[C@@](O)(C(=O)OC)[C@H](OC(C)=O)[C@]5(CC)C=CCN6CC[C@]43[C@@H]65)C2)C1"
0

Dear colleague, please send me the reported Hepatotoxicity (severe hepatitis) for "NC[C@H]1O[C@H](O[C@H]2[C@H](O)[C@@H](O[C@H]3O[C@H](CO)[C@@H](O)[C@H](N)[C@H]3O)[C@H](N)C[C@@H]2N)[C@H](N)C[C@@H]1O" when you can.
0

// Input: "O=C(Nc1cccc2c(=O)cc(-c3nnn[nH]3)oc12)c1ccc(OCCCCc2ccccc2)cc1" . Output its Hepatotoxicity (severe hepatitis) only.
0

Fill in reported Hepatotoxicity (severe hepatitis) for this entry: CCCCC(CC)COC(=O)CC(C(=O)OCC(CC)CCCC)S(=O)(=O)O (centres undefined) [DOCUSATE]
0

====

# CONDITION LABEL: human, serum
MEASURED QUANTITY: Hepatotoxicity (moderate)

Please give the documented Hepatotoxicity (moderate) of CC(C(=O)O)c1ccc(-c2ccccc2)c(F)c1 (configuration not stated)
4

Entry C[S+](CC[C@H](N)C(=O)[O-])C[C@H]1O[C@@H](n2cnc3c(N)ncnc32)[C@H](O)[C@@H]1O (some centres not stated) needs its Hepatotoxicity (moderate) filled in; supply it.
2

Indicate the recorded Hepatotoxicity (moderate) value for this molecule: CCNC(=O)[C@@H]1CCCN1C(=O)[C@H](CCCNC(=N)N)NC(=O)[C@H](CC(C)C)NC(=O)[C@@H](CC(C)C)NC(=O)[C@H](Cc1ccc(O)cc1)NC(=O)[C@H](CO)NC(=O)[C@H](Cc1c[nH]c2ccccc12)NC(=O)[C@H](Cc1c[nH]cn1)NC(=O)[C@@H]1CCC(=O)N1 [LEUPROLIDE]
3

Output measured Hepatotoxicity (moderate) for this item: NC(=O)CCC/N=C(\c1ccc(Cl)cc1)c1cc(F)ccc1O [PROGABIDE]
6

Query Hepatotoxicity (moderate) for "O=C(O)c1ccccc1Nc1cccc(C(F)(F)F)c1"
1

In one line, give reported Hepatotoxicity (moderate) of the entry "C=CC1=C(C(=O)O)N2C(=O)[C@@H](NC(=O)/C(=N\O)c3csc(N)n3)[C@H]2SC1" .
43

Give the reported Hepatotoxicity (moderate) for this molecule. "O=C[C@H](O)[C@@H](O)[C@H](O)[C@H](O)CO[C@H]1O[C@H](CO[C@H]2O[C@H](CO)[C@@H](O)[C@H](O)[C@H]2O)[C@@H](O)[C@H](O)[C@H]1O"
2

====

# CONDITION LABEL: human
Kindly supply the reported Hepatotoxicity (cytolytic) values for the records listed here.
The reply should be a number, written without any unit.

Supply recorded Hepatotoxicity (cytolytic) for "CO/N=C(\C(=O)N[C@@H]1C(=O)N2C(C(=O)O)=C(CSc3nc(=O)c(=O)[nH]n3C)CS[C@H]12)c1csc(N)n1" here.
3

Report Hepatotoxicity (cytolytic) for CC(C)CCOc1ccc(NC(=S)Nc2ccc(OCCC(C)C)cc2)cc1 [TIOCARLIDE]
2

Tell me its Hepatotoxicity (cytolytic) given "CC1(C)S[C@@H]2[C@H](NC(=O)[C@H](N)c3ccccc3)C(=O)N2[C@H]1C(=O)O" as the entry.
3

Could you please provide reported Hepatotoxicity (cytolytic) for "Cc1ccc(-c2nc3ccc(C)cn3c2CC(=O)N(C)C)cc1" ? Thanks!
2

Give recorded Hepatotoxicity (cytolytic). "OCCN1CCN(CCCN2c3ccccc3Sc3ccc(C(F)(F)F)cc32)CC1"
1

Provide only the value of recorded Hepatotoxicity (cytolytic) for "CN1CCN(C(=S)Nc2ccc(Nc3ccc([N+](=O)[O-])cc3)cc2)CC1"
0

For the molecule "COc1ccc(Cc2nccc3cc(OC)c(OC)cc23)cc1OC" , give its measured Hepatotoxicity (cytolytic) value.
7

Retrieve Hepatotoxicity (cytolytic) measured for CN1Cc2c(N)cccc2C(c2ccccc2)C1 (centres undefined) and print it.
8

Give the reported Hepatotoxicity (cytolytic) for this molecule. "CCN1CCN(C(=O)N[C@@H](C(=O)N[C@@H]2C(=O)N3C(C(=O)O)=C(CSc4nnnn4C)CS[C@H]23)c2ccc(O)cc2)C(=O)C1=O"
0

====

# PROTOCOL: Highest frequency of moderate liver toxicity observed during clinical trials, expressed as a percentage. [column '% BIOL' in source]
# CONDITION LABEL: human
Task for the reader: assign each of the following compounds its reported Hepatotoxicity (moderate).
Quick note: give the figure in %, leave out the unit.

Return the recorded Hepatotoxicity (moderate) value; entry: "CC1=C(/C=C/C(C)=C/C=C/C(C)=C\C(=O)O)C(C)(C)CCC1"
44.4

Specify measured Hepatotoxicity (moderate) for CC1(C)S[C@@H]2[C@H](NC(=O)C(C(=O)O)c3ccccc3)C(=O)N2[C@H]1C(=O)O (some centres undefined) .
56

// Input: CC1(C)O[C@@H]2[C@@H](CO[C@@]3(COS(N)(=O)=O)OC(C)(C)O[C@@H]23)O1 [TOPIRAMATE] . Output its Hepatotoxicity (moderate) only.
23

Input "N[C@@H](CSCC(=O)O)C(=O)O" , output reported Hepatotoxicity (moderate).
0.8

Consider the compound "CCC[C@@H]1C[C@@H](C(=O)N[C@@H]([C@H]2O[C@H](SC)[C@H](O)[C@@H](O)[C@H]2O)[C@H](C)Cl)N(C)C1" and give its recorded Hepatotoxicity (moderate).
52

Identify the reported Hepatotoxicity (moderate) for the following entry. "CC(/C=C1\SC(=S)N(CC(=O)O)C1=O)=C\c1ccccc1"
1

Entry CC(=O)CC(c1ccccc1)c1c(O)c2ccccc2oc1=O (centres undefined) needs its Hepatotoxicity (moderate) filled in; supply it.
0

Entry O=C(O)CCNC(=O)c1ccc(/N=N/c2ccc(O)c(C(=O)O)c2)cc1 [BALSALAZIDE] needs its Hepatotoxicity (moderate) filled in; supply it.
0

In one line, give reported Hepatotoxicity (moderate) of the entry CCCc1cc(C(N)=S)ccn1 [PROTIONAMIDE] .
13

Give the reported value of Hepatotoxicity (moderate) for this record: "CN(C)[C@@H]1C(O)=C(C(N)=O)C(=O)[C@@]2(O)C(O)=C3C(=O)c4c(O)cccc4[C@@](C)(O)[C@H]3[C@H](O)[C@@H]12"
60

Please report the measured Hepatotoxicity (moderate) for "COc1ccc(Cc2nccc3cc(OC)c(OC)cc23)cc1OC"
53

Provide Hepatotoxicity (moderate) value for the following compound: "N#C[C@H](O[C@@H]1O[C@H](CO[C@@H]2O[C@H](CO)[C@@H](O)[C@H](O)[C@H]2O)[C@@H](O)[C@H](O)[C@H]1O)c1ccccc1"
0

State, in one line, measured Hepatotoxicity (moderate) of "CC1(C)[C@@H](OC(=O)CCC(=O)O)CC[C@]2(C)[C@H]3C(=O)C=C4[C@@H]5C[C@@](C)(C(=O)O)CC[C@]5(C)CC[C@@]4(C)[C@]3(C)CC[C@@H]12"
0

For the compound Cc1cc(CC(=O)O)n(C)c1C(=O)c1ccc(Cl)cc1 [ZOMEPIRAC] , report Hepatotoxicity (moderate).
1.7

Hello, the source for this data is ChEMBL document CHEMBL3137667, in case you need it.
